Test system: intracellular amastigotes of L. amazonensis
Assay: Antiamastigote test, L. amazonensis in mouse peritoneal macrophages
Format: cell-based, Leishmania amazonensis
Settings: CC50 in Macrophages/IC50 in intracellular amastigotes
Label scheme for L. amazonensis SI (Selective Index): lower than 50 is F, 50 and above is T.

QUERY: For this compound, is measured L. amazonensis SI (Selective Index) 50 or higher? O=C1C2=C(C(=O)c3ccccc31)[C@H]1COc3ccc(Cl)cc3[C@H]1O2
RESULT: T

QUERY: What would you report for COc1ccc2c(c1)CC[C@@H]1C3=C(O[C@H]21)C(=O)c1ccccc1C3=O (relative stereo) ?
RESULT: F

QUERY: What would you report for COc1ccc2c(c1)[C@H]1OC3=C(C(=O)c4ccccc4C3=O)[C@H]1CC2 (relative stereo) ?
RESULT: F

Next:
QUERY: For this compound, is measured L. amazonensis SI (Selective Index) 50 or higher? O=C1C2=C(C(=O)c3ccccc31)[C@H]1CCc3ccccc3[C@H]1O2 (relative stereo)
RESULT: T

QUERY: What would you report for O=C1C2=C(C(=O)c3ccccc31)[C@H]1Oc3ccccc3[C@H]1CO2 ?
RESULT: F

QUERY: What would you report for O=C1C2=C(C(=O)c3ccccc31)[C@H]1COc3ccccc3[C@H]1O2 ?
RESULT: F

QUERY: What would you report for N=C(N)c1ccc(OCCCCCOc2ccc(C(=N)N)cc2)cc1 [Pentamidine, reference compound] ?
RESULT: F

QUERY: What would you report for O=C1C2=C(C(=O)c3ccccc31)[C@H]1COc3cc4c(cc3[C@H]1O2)OCO4 ?
RESULT: T

----------
This listing pairs compounds with measured L. braziliensis SI (Selective Index).
Test system: intracellular amastigotes of L. braziliensis
Assay: Antiamastigote test, L. braziliensis in golden hamster macrophages
Assay type: cell-based
Settings: CC50 in Macrophages/IC50 in intracellular amastigotes
Reply with the value as a number alone.

Here is how some compounds turned out for L. braziliensis SI (Selective Index).
QUERY: Returns the measured L. braziliensis SI (Selective Index) for the input compound. Input: O=C1C2=C(C(=O)c3ccccc31)[C@H]1COc3ccc(Cl)cc3[C@H]1O2
RESULT: 5.26

QUERY: What would you report for O=C1C2=C(C(=O)c3ccccc31)[C@H]1COc3ccccc3[C@H]1O2 ?
RESULT: 2.15

QUERY: What would you report for COc1ccc2c(c1)CC[C@@H]1C3=C(O[C@H]21)C(=O)c1ccccc1C3=O (relative stereo) ?
RESULT: 1.74

QUERY: What would you report for O=C1C2=C(C(=O)c3ccccc31)[C@H]1COc3cc4c(cc3[C@H]1O2)OCO4 ?
RESULT: 11.03

QUERY: What would you report for N=C(N)c1ccc(OCCCCCOc2ccc(C(=N)N)cc2)cc1 [Pentamidine, reference compound] ?
RESULT: 1.1

Next:
QUERY: Returns the measured L. braziliensis SI (Selective Index) for the input compound. Input: COc1ccc2c(c1)[C@H]1OC3=C(C(=O)c4ccccc4C3=O)[C@H]1CC2 (relative stereo)
RESULT: 5.53

QUERY: What would you report for O=C1C2=C(C(=O)c3ccccc31)[C@H]1CCc3ccccc3[C@H]1O2 (relative stereo) ?
RESULT: 5.0

QUERY: What would you report for O=C1C2=C(C(=O)c3ccccc31)[C@H]1Oc3ccccc3[C@H]1CO2 ?
RESULT: 2.46
